Listed below: growth values for each entry.
# System: TK-10 renal
# procedure_details: NCI-60 one-dose screen, 48 h (100 = growth as untreated, 0 = no growth, -100 = all killed)
# run_conditions: 10 µM unless noted
This is part of a sample that, as a whole, favours compounds with a hit. Of some 83,000 tested, about 20% had one in any assay.
Entry rule: numbers only, all in %.

Below are worked cases with known answers.
compound: Cc1nc2c3c(ncn2n1)Oc1c(c(=O)[nH]c2ccccc12)C3c1ccc(Cl)cc1 (stereo unspecified)
units_text: %
test_result: 105

compound: CCCCOc1ccc(/C=C2/SC(N3CCCC3)=NC2=O)cc1
units_text: %
test_result: 103

compound: COc1cc(/C(C#N)=C/c2ccc3c(c2OC)OCO3)cc2c1OCO2
units_text: %
test_result: 54.3

compound: CCCCN(CCCC)C(=N)c1ccnc2ccccc12
units_text: %
test_result: 105

compound: COc1cc(/C=C/C(=O)c2cccc(-n3cc(-c4cc(OC)c(OC)c(OC)c4)[nH]c3=O)c2)cc(OC)c1OC
units_text: %
test_result: 27.8

Alright, here's another compound for you.
Can you share its growth? I mean this compound: COc1ccc(C2C=C(c3ccc(Cl)cc3)N=C3SC=C(C)N32)c(Br)c1 (stereo unspecified)
65.2

Reference for the values: PubChem BioAssay (NCI)
